Hey, just so you know, these numbers are from patent US20210380703A1.

- tgt: Mouse ACVR2A (mouse, UniProt P27038 20-135, limits assumed)
- Sequence (P27038 20-135 limits assumed): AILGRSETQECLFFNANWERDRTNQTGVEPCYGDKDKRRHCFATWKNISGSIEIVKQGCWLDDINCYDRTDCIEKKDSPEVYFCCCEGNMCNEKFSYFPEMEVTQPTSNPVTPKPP
- method summary: ELISA; also: test concentration or dose not given here
- Experimental: The binding of ACVR2A-specific monoclonal antibodies to human ACVR2A, mouse ACVR2A, biotinylated goat anti-human kappa light chain (positive control) and human Fc (negative control) were determined by ELISA.
Quick list: optical density per entry.
Your answer should be a plain number; it is taken to be in OD.

binder	quantity measured	units label	assay value
365_D09 (antibody, V domains shown, VH/VL only) VH: EVQLLESGGGLVQPGGSLRLSCAASGFTFSSYGMHWVRQAPGKGLEWVSGINYNSGYTSYADSVKGRFTISRDNSKNTLYLQMNSLRAEDTAVYYCARSANWHDTALDYWGQGTLVTVSS VL: DIQMTQSPSSLSASVGDRVTITCRASQSILSYLNWYQQKPGKAPKLLIYAATSRASGVPSRFSGSGSGTDFTLTISSLQPEDFATYYCQQSDESPLTFGGGTKVEIK	optical density	OD	1.35

Q) May I ask what optical density has been recorded for 365_C11 (antibody, V domains shown, VH/VL only) VH: EVQLLESGGGLVQPGGSLRLSCAASGFTFSSYSMNWVRQAPGKGLEWVAGINYNGGYKSYADSVKGRFTISRDNSKNTLYLQMNSLRAEDTAVYYCARSANWHDTHLDYWGQGTLVTVSS VL: DIQMTQSPSSLSASVGDRVTITCRASQSIITYLNWYQQKPGKAPKLVIYAVTSRASGVPSRFSGSGSGTDFTLTISSLQPEDFATYYCQQSYSLPLTFGGGTKVEIK ?
A) 2.78
